# tested-on: human CXCR3A (Homo sapiens (Human))
# Sequence (P49682 whole entry): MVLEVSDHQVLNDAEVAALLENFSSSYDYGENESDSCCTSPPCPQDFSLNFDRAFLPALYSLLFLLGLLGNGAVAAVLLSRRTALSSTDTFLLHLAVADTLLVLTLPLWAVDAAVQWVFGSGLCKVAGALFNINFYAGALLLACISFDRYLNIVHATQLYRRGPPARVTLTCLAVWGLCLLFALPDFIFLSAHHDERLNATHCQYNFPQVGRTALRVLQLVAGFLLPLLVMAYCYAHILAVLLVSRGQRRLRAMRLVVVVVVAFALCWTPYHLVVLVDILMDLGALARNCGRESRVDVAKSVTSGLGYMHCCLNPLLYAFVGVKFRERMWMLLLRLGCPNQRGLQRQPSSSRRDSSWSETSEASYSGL
# protocol-notes: FLIPR assay (inhibition of CXCL10-induced calcium signal)
# condition-info: engineered CHO-K1 cells expressing human CXCR3A coupled to Galpha(16); Fluo-4-AM; CXCL10 agonist 20 nM; mean values where determined several times
pIC50: −log10 of the molar value.
Give 1 when the value for pIC50 is at least 7. Give -1 when it is less.

query-smiles	assigned-label
C[C@@H]1CN(c2cccc3c2CN(C(=O)[C@H](C)c2ccccc2)CC3)CCN1C(=O)Cn1cnc2cccnc21	-1
O=C(Cn1cnc2cccnc21)N1CCN(c2cccc3c2CN(C(=O)OCc2ccccc2)CC3)CC1	1
Cc1ccn(CC(=O)N2CCN(c3ccc(C(F)(F)F)c4c3CN(c3nc5ccc(F)cc5s3)CC4)C[C@H]2C)n1	1
CCOc1ncc(N2CCc3c(C(F)(F)F)ccc(N4CCN(C(=O)CN5C(=O)Cc6ccccc65)CC4)c3C2)cn1	1
Cc1cc(C)n(CC(=O)N2CCN(c3ccc(C(F)(F)F)c4c3CN(c3nc5ccccc5o3)CC4)C[C@H]2C)n1	1
Cn1c(=O)n(CC(=O)N2CCN(c3cccc4c3CN(C(=O)OCc3ccccc3)CC4)CC2)c2ccccc21	1
COCC(=O)N1CCc2cccc(N3CCN(C(=O)Cn4cnc5cccnc54)[C@H](C)C3)c2C1	-1
